Reported inhibition at 4 µM values for the following compounds.
# Tested on: MOLT-4
# Assay Overview: Percentage inhibition of HIV-1-induced giant cell (syncytia) formation using MOLT-4 cell at 4 uM
# Assay type: functional
# Settings: Homo sapiens
Record the result as number plus unit.

Sample answers from the record:
[
  {
    "Smiles Str": "O=S(=O)(O)c1cc(S(=O)(=O)O)c2cc(NS(=O)(=O)c3ccc(-c4ccc(S(=O)(=O)Nc5ccc6cc(S(=O)(=O)O)cc(S(=O)(=O)O)c6c5)cc4)cc3)ccc2c1",
    "inhibition at 4 µM": "21%"
  },
  {
    "Smiles Str": "O=C(CCCCCCC(=O)Nc1cc(S(=O)(=O)O)cc2cc(S(=O)(=O)O)cc(O)c12)Nc1cc(S(=O)(=O)O)cc2cc(S(=O)(=O)O)cc(O)c12",
    "inhibition at 4 µM": "31%"
  },
  {
    "Smiles Str": "O=C(O)c1cc(NS(=O)(=O)c2ccc(-c3ccc(S(=O)(=O)Nc4cc(C(=O)O)c(O)c(S(=O)(=O)O)c4)cc3)cc2)cc(S(=O)(=O)O)c1O",
    "inhibition at 4 µM": "0%"
  }
]

Give inhibition at 4 µM (MOLT-4) of the following compound: `O=C(CCCCCCCCC(=O)Nc1cc(S(=O)(=O)O)cc2cc(S(=O)(=O)O)cc(O)c12)Nc1cc(S(=O)(=O)O)cc2cc(S(=O)(=O)O)cc(O)c12` 30%

Give inhibition at 4 µM (MOLT-4) of the following compound: `O=C(CCCCCCCCCCC(=O)Nc1cc(S(=O)(=O)O)cc2cc(S(=O)(=O)O)cc(O)c12)Nc1cc(S(=O)(=O)O)cc2cc(S(=O)(=O)O)cc(O)c12` 11%

====

# Test system: Human immunodeficiency virus 1
# Assay Overview: Cytotoxicity against HIV-1 (HTLV-IIIB) in MT-4 cells
# Format: functional
# Settings: Human immunodeficiency virus 1, MT4
Reported Property: CC50

Sample answers from the record:
[
  {
    "Smiles Str": "O=S(=O)(O)c1cc(S(=O)(=O)O)c2cc(OS(=O)(=O)c3cccc4c(S(=O)(=O)Oc5ccc6cc(S(=O)(=O)O)cc(S(=O)(=O)O)c6c5)cccc34)ccc2c1",
    "System Under Test": "Human immunodeficiency virus 1",
    "Readout Value": "> 500 µM"
  },
  {
    "Smiles Str": "Nc1ccc(S(=O)(=O)O)c2ccccc12",
    "System Under Test": "Human immunodeficiency virus 1",
    "Readout Value": "> 500 µM"
  }
]

API: the following record is the query input.
Which CC50 reading was recorded for the compound `O=S(=O)(O)c1cc(S(=O)(=O)O)c2cc(O)ccc2c1` ? > 500 µM
